- testedOn: TBK1 (Homo sapiens)
- Sequence (Q9UHD2 1-729): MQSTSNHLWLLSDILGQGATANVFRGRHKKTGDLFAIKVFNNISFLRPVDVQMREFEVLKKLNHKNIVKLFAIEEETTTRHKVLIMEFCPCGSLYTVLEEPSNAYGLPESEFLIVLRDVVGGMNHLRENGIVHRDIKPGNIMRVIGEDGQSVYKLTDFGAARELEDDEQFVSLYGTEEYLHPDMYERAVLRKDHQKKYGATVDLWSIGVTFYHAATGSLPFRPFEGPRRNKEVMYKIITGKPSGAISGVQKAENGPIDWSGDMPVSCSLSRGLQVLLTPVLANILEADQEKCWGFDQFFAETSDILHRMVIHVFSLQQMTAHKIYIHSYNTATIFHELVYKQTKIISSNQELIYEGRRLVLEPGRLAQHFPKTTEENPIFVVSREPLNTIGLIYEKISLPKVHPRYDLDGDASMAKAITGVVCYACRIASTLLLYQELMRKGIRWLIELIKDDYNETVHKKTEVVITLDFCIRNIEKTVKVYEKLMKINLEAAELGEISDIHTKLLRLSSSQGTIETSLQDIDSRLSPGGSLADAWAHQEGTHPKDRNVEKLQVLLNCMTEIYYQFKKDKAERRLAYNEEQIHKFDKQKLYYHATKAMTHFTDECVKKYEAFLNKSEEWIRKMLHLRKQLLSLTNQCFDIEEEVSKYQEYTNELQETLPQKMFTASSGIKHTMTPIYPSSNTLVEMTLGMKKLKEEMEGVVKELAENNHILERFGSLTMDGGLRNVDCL
- protocolDetails: FRET-based Z'-LYTE TBK1 enzymatic assay
- Assay type: biochemical
- Parameters: purchased Thermo Scientific A31513
- condition: compound at 1 μM; 100 µM ATP; read-out: TBK1 inhibition (%) 1 μM
measurementName: inhibition at 1 µM (%)
Hi! Could you send only the number? It should be in %, unit omitted.

>>> print(df.to_string())
                                   molecule     measurementname  displayunit  reading
0  Cc1nc2ccc(-c3n[nH]c4ncc(-c5ccc(S(N)(=O)=O)cc5)cc34)cc2n1C(C)C [Compound 15s]  inhibition at 1 µM            %     97.2
1  Cc1nc2c(F)cc(-c3n[nH]c4ncc(-c5ccc(CN6CCN(C)CC6)cc5)cc34)cc2n1C(C)C [Compound 15x]  inhibition at 1 µM            %     75.8
2  CC(=O)Nc1cc(-c2cnc3[nH]nc(-c4ccc5ncn(C(C)C)c5c4)c3c2)ccn1 [Compound 15j]  inhibition at 1 µM            %      104
3  CN1CCN(Cc2ccc(-c3cnc4[nH]nc(-c5ccc6[nH]cnc6c5)c4c3)cc2)CC1 [Compound 15d]  inhibition at 1 µM            %     84.1

GET /values?readout=inhibition at 1 µM&item= CN1CCN(Cc2ccc(-c3cnc4[nH]nc(-c5cccc6cnccc56)c4c3)cc2)CC1 [Compound 15f]
81.4

Consider next the molecule CCn1cnc2ccc(-c3n[nH]c4ncc(-c5ccc(S(N)(=O)=O)cc5)cc34)cc21 [Compound 15u] in the same way.
89.6

Consider next the molecule Cc1nc2c(F)cc(-c3n[nH]c4ncc(-c5ccc(S(N)(=O)=O)cc5)cc34)cc2n1C1CC1 [Compound 15v] in the same way.
87.4

Consider next the molecule CC(C)n1cnc2ccc(-c3n[nH]c4ncc(-c5ccc(C(=O)N6CCN(C)CC6)cc5)cc34)cc21 [Compound 15g] in the same way.
108

Consider next the molecule Cc1nc2c(F)cc(-c3n[nH]c4ncc(-c5ccc(S(N)(=O)=O)cc5)cc34)cc2n1C(C)C [Compound 15t] in the same way.
99.1

Attribution: paper PMC9132415
